Reference for the values: patent US9512107B2

Items are presented alongside their recorded pIC50.
- TARGET SYSTEM: IDH2 R140Q (Homo sapiens, UniProt P48735, R140Q)
- Sequence (P48735 40-452 R140Q): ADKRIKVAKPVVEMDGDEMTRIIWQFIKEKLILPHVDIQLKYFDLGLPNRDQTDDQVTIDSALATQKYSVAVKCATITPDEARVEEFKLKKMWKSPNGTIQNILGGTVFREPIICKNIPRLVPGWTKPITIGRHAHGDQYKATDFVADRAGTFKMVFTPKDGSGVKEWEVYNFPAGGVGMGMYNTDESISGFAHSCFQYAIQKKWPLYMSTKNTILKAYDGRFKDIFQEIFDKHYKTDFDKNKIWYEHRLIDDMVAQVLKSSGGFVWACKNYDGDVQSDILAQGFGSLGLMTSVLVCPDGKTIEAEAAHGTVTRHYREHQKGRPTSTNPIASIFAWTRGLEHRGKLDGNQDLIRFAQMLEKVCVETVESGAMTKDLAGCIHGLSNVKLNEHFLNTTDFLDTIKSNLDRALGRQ
- ASSAY NAME: IDH2 R140Q enzymatic assay (cofactor depletion, similar format)
- Assay type: biochemical
- REPORTED CONDITIONS: read-out: Enz R140Q
pIC50: −log10 of the molar value.

Before answering, review these 3 worked examples.
INSERT INTO results (compound, target_system, experimental_endpoint, experimental_value) VALUES
  ('Fc1cc(Nc2nc(NCC3CCCO3)nc(-c3cccc(C(F)(F)F)n3)n2)ccn1 (stereo not shown)', 'IDH2 R140Q (Homo sapiens, UniProt P48735, R140Q)', 'pIC50', '6.00 to 7.00'),
  ('CC(C)Nc1nc(Nc2ccccc2)nc(-c2cccc(Cl)n2)n1', 'IDH2 R140Q (Homo sapiens, UniProt P48735, R140Q)', 'pIC50', '> 7.00'),
  ('Fc1ccc(Nc2nc(NC3COC3)nc(-c3ccccc3F)n2)cn1', 'IDH2 R140Q (Homo sapiens, UniProt P48735, R140Q)', 'pIC50', '6.00 to 7.00');

Then this compound:
Measured pIC50, CC(C)Nc1nc(Nc2cncc(C#N)c2)nc(-c2ccccc2F)n1 : > 7.00
